- target system: RSV F protein of subtype A strain A2, on virus (respiratory syncytial virus subtype A …, UniProt P03420 26-574)
- run description: cell-based or functional assay
Would you mind telling me the reported Neut IC50 (ug/ml) subtype A of each entry?
One number for each entry, in µg/mL.

ADI-15650 (antibody, V domains shown, IgG; also called Antibody Number 214) VH: EVQLVESGGGLIQPGGSLRLSCAASGFTVSSKYMSWVRQAPGKGLEWVSIIYSGGSTYYADSVKGRFTISRDNSKNTLYLQMNSLRAEDTAVYYCARDDYDFWSGNGPPEMAVWGQGTTVTVSS VL: DMRLTQSPSSLSASVGDRVTITCRASQGISNYLAWYQQRPGKVPQLLIYTASTLQSGVPSRFSGSGSETDFTLTISSLQPEDVATYYCQKYDSVPLTFGQGTKVEIK : 8.3
ADI-15599 (antibody, V domains shown, IgG; also called Antibody Number 165) VH: EVQLLESGGGLVQPGRSLRLSCSGSGFTFGDYALSWVRQAPGKGLEWVGFIRSKAYGGTTEYAASVKGRFTISRDDSKSIAYLQMNSLKTEDTAVYYCTMAVVVPGATDAFDIWGQGTMVTVSS VL: NFMLTQPHSVSESPGKTVTISCTRSSGSIASDYVQWFQQRPGSSPATVIYQDNQRPSGVPDRFSGSIDTSSNSASLTISGLKTEDEADYYCHSYDSSNPWVFGGGTKLTVL : 0.11

Task: Answer with the recorded Neut IC50 (ug/ml) subtype A for the binder listed here: ADI-15623 (antibody, V domains shown, IgG; also called Antibody Number 188) VH: EVQLLESGGGLVKPGGSLRLSCAASGFTIGGYNMFWVRQPPGKGLEWVSSITAGSSYLNYADSVKGRFIVSRDNAKNSLYLQMNSLRAEDTAVYFCARAPLLPAMMDLWGQGTTVTVSS VL: QSVVTQPPSVSGAPGQRVTISCTGSSSNIGAGYDVHWYQQLPGTAPKLLIYTNNNRPSGVPDRFSGSKSGTSASLAITGLQAEDEADYYCQSYDRSLNGYVFGTGTQLTVL
Output: 0.054
